Below: a set of entries, each annotated with reported IC50.
System: 379773-124-R-J2-PDC complex spheroids, viability % test/control;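 further: compound exposure lasted seven days before the viability readout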
protocolDescription: Anticancer human tumor 379773-124-R-J2-PDC patient-derived endometrial carcinoma cell line growth inhibition [CLK]
condition: curve of first compound; second compound 0.1 µM

Ask: Record request: IC50 value, item Nc1ccccc1NC(=O)c1ccc(CNC(=O)OCc2cccnc2)cc1 + CNC(=O)c1ccc(Nc2nc(OC3CCCC3)c3c(-c4ccc5nc(C)oc5c4)c[nH]c3n2)c(OC)c1
Reply: < 0.0316 µM

Ask: Also CC1COCCN1c1cc(C2(S(C)(=N)=O)CC2)nc(-c2ccnc3[nH]ccc23)n1 (stereo not given) + CNC(=O)c1ccc(Nc2nc(OC3CCCC3)c3c(-c4ccc5nc(C)oc5c4)c[nH]c3n2)c(OC)c1 ?
Reply: < 0.0316 µM
